Assay: Photochromic properties of binder sheet (photochromic layer prepared by binder method)
Assay type: physicochemical
Details: urethaneurea resin binder sheet, 0.25 mmol per 100 parts by mass resin, after color development
measured_endpoint: Maximum absorption wavelength (nm)

COCCCCC1(CCCCOC)c2cc(Sc3c(C)cccc3C)ccc2-c2c1c1c(c3cc(OC)ccc23)OC(c2ccc(OC)cc2)(c2ccc(N(C)c3ccc(OC)cc3)cc2)C=C1 (stereo not shown) [Example 11]    479
CCCCN(c1ccccc1)c1ccc(C2(c3ccc(C)cc3)C=Cc3c4c(c5cc(N6CCOCC6)c(OC)cc5c3O2)-c2ccccc2C4(CC)CC)cc1 (stereo not shown) [Example 10]    516
COc1ccc(C2(c3ccc(N(C)c4ccccc4)cc3)C=Cc3c4c(c5cc(-c6ccc(N7CCOCC7)cc6)c(OC)cc5c3O2)-c2ccccc2C4(C)C)cc1 (stereo not shown) [Example 1]    502
CCN(c1ccc(OC)cc1)c1ccc(C2(c3ccc(OC)cc3)C=Cc3c4c(c5cc(-c6ccc(N7CCOCC7)cc6)c(OC)cc5c3O2)-c2ccccc2C4(C)C)cc1 (stereo not shown) [Example 25]    505

###

Catalogue of A23 readings, one per entry.
Assay: Photochromic properties of photochromic cured product prepared by kneading method
Type: physicochemical
Details: 1 mm cured product, 0.106 mmol per 100 g monomer, 23°C color optical density ε(300)-ε(0)

In the examples that follow, each entry is paired with its recorded A23.
CCCc1ccc(C2(c3ccc(N(C)c4ccccc4)cc3)C=Cc3c4c(c5cc(Sc6c(C)cccc6C)c(OC)cc5c3O2)-c2ccccc2C42CC(C)(C)CC(C)(C)C2)cc1 (centres unmarked) [Example 5]    0.56 -
CCCC1(CCC)c2ccccc2-c2c1c1c(c3cc(OC)c(-c4ccc(N(C)c5ccccc5)cc4)cc23)OC(c2ccc(C)cc2)(c2ccc(N(C)c3ccccc3)cc2)C=C1 (centres unmarked) [Example 24]    1.32 -
COCCOCCC1(CCOCCOC)c2cc(C)ccc2-c2c1c1c(c3cc(C)ccc23)OC(c2ccc(N(C)c3ccc(F)cc3)cc2)(c2ccc(OC)c(OC)c2)C=C1 (centres unmarked) [Example 8]    0.51 -
CCCC1(CCC)c2ccccc2-c2c1c1c(c3cc(OC)c(-c4ccc(OC)cc4OC)cc23)OC(c2ccc(N(C)c3ccccc3)cc2)(c2ccc(OC)c(F)c2)C=C1 (centres unmarked) [Example 7]    0.75 -

// A23 value for CCCCC1(CCCC)c2cc(-c3ccc(OC(C)C)cc3)ccc2-c2c1c1c(c3cc(OC)ccc23)OC(c2ccc(N(C)c3ccccc3)cc2)(c2ccc(OC)c(F)c2)C=C1 (centres unmarked) [Example 21] : 0.62 -

###

Experiment: Accelerated deterioration (xenon weather meter X25, 120 hours) of photochromic laminate prepared by coating method
Format: physicochemical
Details: 0.25 mmol per 100 g monomers, A120/A0×100 after 120 hours xenon weather meter
measured_endpoint: Residual rate (%)

COCCC1(CCOC)c2ccccc2-c2c1c1c(c3cc(OC)c(-c4ccc(N(c5ccccc5)c5ccccc5)cc4)cc23)OC(c2ccc(Oc3ccccc3)cc2)(c2ccc(N(C)c3ccccc3)cc2)C=C1 (centres unmarked)    60
COc1ccc(C2(c3ccc(N(c4ccccc4)C4CCCCC4)cc3)C=Cc3c4c(c5cc(OC)c(OC)cc5c3O2)-c2ccccc2C4(CCCCF)CCCCF)cc1 (centres unmarked)    70
CCCc1ccc(C2(c3ccc(N(C)c4ccccc4)cc3)C=Cc3c4c(c5cc(OC)ccc5c3O2)-c2ccccc2C42CCCCCCC2)cc1 (centres unmarked)    59
CCCc1ccc(C2(c3ccc(N(C)c4ccccc4)cc3)C=Cc3c4c(c5cc(Sc6c(C)cccc6C)c(OC)cc5c3O2)-c2ccccc2C42CC(C)(C)CC(C)(C)C2)cc1 (centres unmarked)    68
CCCC1(CCC)c2cc(OC)ccc2-c2c1c1c(c3cc(OC)ccc23)OC(c2ccc(OC)cc2)(c2ccc(N(C)c3ccccc3)cc2)C=C1 (centres unmarked)    55
COc1ccc(C2(c3ccc(N(C)c4ccccc4)cc3)C=Cc3c4c(c5cc(-c6c(OC)cc(OC)cc6OC)c(OC)cc5c3O2)-c2ccc(C)cc2C4(CCCSC)CCCSC)cc1 (centres unmarked)    65
COCCOCCC1(CCOCCOC)c2cc(C)ccc2-c2c1c1c(c3cc(C)ccc23)OC(c2ccc(N(C)c3ccc(F)cc3)cc2)(c2ccc(OC)c(OC)c2)C=C1 (centres unmarked)    60
COc1ccc(C2(c3ccc(N(C)c4ccccc4)cc3)C=Cc3c4c(c5cc(-c6ccc(N7CCOCC7)cc6)c(OC)cc5c3O2)-c2ccccc2C4(C)C)cc1 (centres unmarked)    65
CCCC1(CCC)c2ccccc2-c2c1c1c(c3cc(OC)c(N(c4ccccc4)c4ccccc4)cc23)OC(c2ccc(C)cc2)(c2ccc(N(C)c3ccccc3)cc2)C=C1 (centres unmarked)    68
CCCOc1ccc(C2(c3ccc(N(CC(F)(F)F)c4ccccc4)cc3)C=Cc3c4c(c5ccccc5c3O2)-c2ccccc2C42CCCCCCC2)cc1 (centres unmarked)    62
CCCc1ccc(C2(c3ccc(N(C)c4ccccc4)cc3)C=Cc3c4c(c5cc(-c6ccc(C)cc6)c(C)cc5c3O2)-c2ccccc2C4(CCOC)CCOC)cc1 (centres unmarked)    60
